# reported α1 bind pIC50; entries follow
Target: recombinant human α1D receptor (Homo sapiens)
Construct: expressed in transfected cells; host or cells: HEK293
Sequence (P25100 1-572): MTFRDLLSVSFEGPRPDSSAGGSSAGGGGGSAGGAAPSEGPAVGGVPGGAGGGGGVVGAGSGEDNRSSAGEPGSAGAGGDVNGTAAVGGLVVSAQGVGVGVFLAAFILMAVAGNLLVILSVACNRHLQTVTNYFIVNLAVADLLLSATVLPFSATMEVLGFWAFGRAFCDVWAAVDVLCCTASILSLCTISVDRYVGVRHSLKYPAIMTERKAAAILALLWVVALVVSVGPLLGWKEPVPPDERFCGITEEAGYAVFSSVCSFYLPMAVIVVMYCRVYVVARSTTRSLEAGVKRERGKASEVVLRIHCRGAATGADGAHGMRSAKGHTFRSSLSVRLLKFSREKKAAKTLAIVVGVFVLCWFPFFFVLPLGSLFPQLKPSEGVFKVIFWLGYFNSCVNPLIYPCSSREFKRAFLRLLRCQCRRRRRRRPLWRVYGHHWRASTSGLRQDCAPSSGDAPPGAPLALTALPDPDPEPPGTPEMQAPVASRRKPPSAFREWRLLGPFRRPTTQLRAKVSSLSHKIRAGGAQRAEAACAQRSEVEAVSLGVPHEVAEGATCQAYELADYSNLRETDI
Test: Adrenergic α1D selectivity binding assay ([3H]-prazosin)
Conditions: inhibition of [3H]-prazosin (0.3 nM) binding, HEK293 membranes
Structures can show the parent of a compound that is named as a salt.

Consider the worked cases shown below.
1) O=C(CCNCCc1cc(F)cc(F)c1)N(CCNCCc1ccc(O)c2[nH]c(=O)sc12)C1CCCCC1 [Example 92, dihydrobromide salt]
6.6
2) O=C(CCNCCc1ccccc1)N(CCNCCc1ccc(O)c2[nH]c(=O)sc12)C1CCCCCC1 [Example 23, bis-trifluoroacetic acid salt]
7.2
3) O=C(CCNCCc1cccc(F)c1)N(CCNCCc1ccc(O)c2[nH]c(=O)sc12)C1CCCCC1 [Example 15, bis-trifluoroacetic acid salt]
6.7
4) O=C(CCNCCc1cccc(F)c1F)N(CCNCCc1ccc(O)c2[nH]c(=O)sc12)C1CCCCC1 [Example 93, dihydrobromide salt]
6.7
5) O=C(CCNCCc1cccc(F)c1)N(CCNCCc1ccc(O)c2[nH]c(=O)sc12)C1CCCCCC1
6.8

Entry O=C(CCNCCc1ccc(Cl)c(Cl)c1)N(CCNCCc1ccc(O)c2[nH]c(=O)sc12)C1CCOCC1 [Example 94, dihydrobromide salt] — recorded α1 bind pIC50 = 6.2

---

Target: recombinant human Dopamine Subtype D2s receptors (Homo sapiens)
Construct: purchased Perkin Elmer
Sequence (P14416 1-414 isoform P14416-2): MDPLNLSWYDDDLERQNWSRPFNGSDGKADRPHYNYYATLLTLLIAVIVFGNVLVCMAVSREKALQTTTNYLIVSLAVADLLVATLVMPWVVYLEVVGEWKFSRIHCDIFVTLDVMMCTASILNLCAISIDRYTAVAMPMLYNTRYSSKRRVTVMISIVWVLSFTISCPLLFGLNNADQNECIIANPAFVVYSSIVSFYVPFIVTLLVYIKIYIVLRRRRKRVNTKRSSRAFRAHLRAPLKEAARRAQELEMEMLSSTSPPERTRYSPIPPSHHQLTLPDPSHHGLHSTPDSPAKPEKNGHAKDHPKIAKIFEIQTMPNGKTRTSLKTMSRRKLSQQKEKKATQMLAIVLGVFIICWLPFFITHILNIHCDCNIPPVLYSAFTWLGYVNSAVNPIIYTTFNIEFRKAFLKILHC
Assay: Dopamine D2 selectivity binding assay ([3H]-spiperone)
Conditions: inhibition of [3H]-spiperone (0.16 nM) binding; read-out: D2 bind pIC50 (converted)
Protocol: Membranes containing recombinant human Dopamine Subtype D2s receptors were obtained from Perkin Elmer. […] Assays were performed in U-bottomed 96-well polypropylene plates. […] Five washes with 250 μL wash buffer (50 mM HEPES, 1 mM EDTA, 120 mM NaCl, pH 7.4) were performed at 4° C. to remove unbound radioactivity. […] The plates were sealed (TopSeal A) and filter-bound radioactivity was measured with a scintillation counter (TopCount, Packard BioScience) using a 3-minute counting protocol. […]
Structures can show the parent of a compound that is named as a salt.
reported metric: log10(IC50) (log10 of the value in nM)
Scale: log10; quantity: IC50; unit before log: nM

Consider the worked cases shown below.
1. CCCC(CCC)N(CCNCCc1ccc(O)c2[nH]c(=O)sc12)C(=O)CCNCCc1ccc(F)cc1 [Example 64, bis-trifluoroacetic acid salt]
2.30
2. Cc1cccc(CCNCCC(=O)N(CCNCCc2ccc(O)c3[nH]c(=O)sc23)C2CCCCCC2)c1 [Example 85, bis-trifluoroacetic acid salt]
1.90
3. CC(C)N(CCNCCc1ccc(O)c2[nH]c(=O)sc12)C(=O)CCNCCc1ccccc1 [Example 1, bis-trifluoroacetic acid salt]
2.60

Entry C[C@@H](CNCCC(=O)N(CCNCCc1ccc(O)c2[nH]c(=O)sc12)C1CCCCC1)c1ccccc1 [Example 20, bis-trifluoroacetic acid salt] — recorded log10(IC50) = 2.90

This collection of values is drawn from patent US20100022491A1.
